Assay: Pharmacokinetic study in ICR mice (oral gavage and intravenous, plasma LC-MS/MS)
Assay type: in vivo
Conditions: mouse, plasma, iv, 10 mg/kg, male ICR mice, iv. 10mg/kg; read-out: Vss
Endpoint: Vd (L/kg)
Numbers only here, please. The scale is L/kg.

For C=CCNc1cc(NC[C@H]2CCNC[C@@H]2O)nc2c(C(C)C)cnn12 [Compound 41] , what is its reported Vd?
4.22

For the molecule C#CCNc1cc(NC[C@H]2CCNC[C@@H]2O)nc2c(C(C)C)cnn12 [Compound 33] , what Vd is on record?
27.8

* * *

Experiment: Pharmacokinetic study in ICR mice (oral gavage and intravenous, plasma LC-MS/MS)
Type: in vivo
Conditions: mouse, plasma; male ICR mice, po. 10mg/kg; read-out: Clast
Procedure: Each group consisted of 12 animals. The dosing vehicle was 10% DMSO + 10% polyoxyethylene castor oil + 80% physiological saline solution. The oral gavage group was fasted for approximately 12 hours prior to dosing and allowed food 4 hours after administration. Water was not restricted during the experiment. […] Pharmacokinetic parameters were calculated using WinNonlin software.
Endpoint: concentration at 8 h (ng/mL)
Your answer should be a plain number; it is taken to be in ng/mL.

Consider the compound shown here: CC(C)c1cnn2c(NCc3ccccc3)cc(NC[C@H]3CCNC[C@@H]3O)nc12 [CT7001, reference compound] What is its recorded concentration at 8 h?
31

* * *

Experiment: Pharmacokinetic study in ICR mice (oral gavage and intravenous, plasma LC-MS/MS)
Format: in vivo
Conditions: mouse, plasma; male ICR mice, po. 10mg/kg; read-out: Bioavailability (F)
Endpoint: bioavailability (%)
Answer with a number only, understood to be in %.

Any idea what bioavailability was measured for C=CCNc1cc(NC[C@H]2CCNC[C@@H]2O)nc2c(C(C)C)cnn12 [Compound 41] ?
15

# input molecule: C#CCNc1cc(NC[C@H]2CCNC[C@@H]2O)nc2c(C(C)C)cnn12 [Compound 33] ; wanted: its bioavailability
5.5

Dear colleague, I am looking for the recorded bioavailability of the following molecule: CC(C)c1cnn2c(NCc3ccccc3)cc(NC[C@H]3CCNC[C@@H]3O)nc12 [CT7001, reference compound]
7.8

* * *

Consider the following molecules; for each one, report its AUC(0-t).
Experiment: Pharmacokinetic study in ICR mice (oral gavage and intravenous, plasma LC-MS/MS)
Assay type: in vivo
Details: mouse, plasma; male ICR mice, po. 10mg/kg
Kindly report the value followed by its unit.

State the recorded AUC(0-t) for this entry: CC(C)c1cnn2c(NCc3ccccc3)cc(NC[C@H]3CCNC[C@@H]3O)nc12 [CT7001, reference compound]
541 ng·h/mL

Query: AUC(0-t); subject: C#CCNc1cc(NC[C@H]2CCNC[C@@H]2O)nc2c(C(C)C)cnn12
65 ng·h/mL

Record request: AUC(0-t) value, item C=CCNc1cc(NC[C@H]2CCNC[C@@H]2O)nc2c(C(C)C)cnn12
445 ng·h/mL

* * *

Biological target: CDK7/CycH/MAT1 (Homo sapiens, UniProt P50613)
Sequence (P50613 whole entry, species assumed): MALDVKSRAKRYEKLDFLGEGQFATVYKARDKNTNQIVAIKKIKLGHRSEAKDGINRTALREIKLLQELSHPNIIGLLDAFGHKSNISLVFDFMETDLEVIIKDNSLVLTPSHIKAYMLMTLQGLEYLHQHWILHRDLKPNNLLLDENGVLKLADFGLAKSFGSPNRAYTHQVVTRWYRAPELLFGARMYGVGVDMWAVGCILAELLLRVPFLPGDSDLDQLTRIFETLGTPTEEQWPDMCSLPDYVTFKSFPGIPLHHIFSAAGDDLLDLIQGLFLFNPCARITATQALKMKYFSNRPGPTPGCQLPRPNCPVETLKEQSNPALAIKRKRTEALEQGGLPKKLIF
Sequence (P51946 whole entry partner, species assumed): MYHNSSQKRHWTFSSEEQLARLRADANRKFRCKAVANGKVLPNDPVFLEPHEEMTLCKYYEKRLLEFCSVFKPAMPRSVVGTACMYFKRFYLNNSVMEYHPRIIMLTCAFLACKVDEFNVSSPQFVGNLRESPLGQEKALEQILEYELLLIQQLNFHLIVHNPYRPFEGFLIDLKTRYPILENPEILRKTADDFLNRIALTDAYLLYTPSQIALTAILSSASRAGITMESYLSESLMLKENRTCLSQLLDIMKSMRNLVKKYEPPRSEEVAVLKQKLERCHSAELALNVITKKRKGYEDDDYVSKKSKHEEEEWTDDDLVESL
Sequence (P51948 whole entry partner, species assumed): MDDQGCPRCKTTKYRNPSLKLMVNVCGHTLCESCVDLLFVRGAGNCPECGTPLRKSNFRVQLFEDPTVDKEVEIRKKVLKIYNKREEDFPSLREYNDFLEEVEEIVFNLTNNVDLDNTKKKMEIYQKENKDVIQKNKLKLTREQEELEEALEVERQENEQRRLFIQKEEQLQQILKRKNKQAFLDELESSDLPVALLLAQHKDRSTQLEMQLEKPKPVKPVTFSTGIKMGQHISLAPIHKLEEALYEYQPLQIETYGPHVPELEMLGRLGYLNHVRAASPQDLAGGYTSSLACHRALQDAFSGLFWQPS
Test: Inhibition of CDK7/CycH/MAT1 kinase activity (ADP-Glo)
Settings: IC50, ATP 30 µM, substrate 0.1 µM, 60 minutes at 25°C
pIC50: −log10 of the molar value.
pIC50 of 8 or higher: Criterion met. Under 8: Criterion not met.

Does the reported pIC50 for C#CCNc1cc(NC[C@H]2CCNC[C@@H]2O)nc2c(C(C)C)cnn12 [Compound 33] fall at or above the 8 mark?
Criterion met

Determine whether this molecule has pIC50 no lower than 8: CC(C)c1cnn2c(NCC3CC3)cc(NC[C@H]3CCNC[C@@H]3O)nc12 [Compound 45]
Criterion not met

Kindly determine if pIC50 recorded for N#Cc1cnn2c(NCc3ccccc3)cc(NC[C@H]3CCNC[C@@H]3O)nc12 [Compound 22] is above or exactly 8.
Criterion met

Given CC#CCNc1cc(NC[C@H]2CCNC[C@@H]2O)nc2c(C(C)C)cnn12 [Compound 38] , state whether its pIC50 is at least 8.
Criterion not met

* * *

Test: Pharmacokinetic study in ICR mice (oral gavage and intravenous, plasma LC-MS/MS)
Format: in vivo
Conditions: mouse, plasma; male ICR mice, po. 10mg/kg
Endpoint: half-life
Answer as a quantity: numeral, then unit.

Suppose we examine the compound C#CCNc1cc(NC[C@H]2CCNC[C@@H]2O)nc2c(C(C)C)cnn12 [Compound 33] ; what half-life value has been reported?
2.9 h

Give its half-life value. Item: CC(C)c1cnn2c(NCc3ccccc3)cc(NC[C@H]3CCNC[C@@H]3O)nc12 [CT7001, reference compound]
2.5 h

Which value of half-life has been reported for C=CCNc1cc(NC[C@H]2CCNC[C@@H]2O)nc2c(C(C)C)cnn12 [Compound 41] in the records?
1.5 h

* * *

Assay: Pharmacokinetic study in ICR mice (oral gavage and intravenous, plasma LC-MS/MS)
Type: in vivo
Conditions: mouse, plasma; male ICR mice, iv. 10mg/kg
I'd be grateful if you could share measured MRT last for these entries.
Give the value in h but do not write h after it.

Can you share its MRT last? I mean this compound: C#CCNc1cc(NC[C@H]2CCNC[C@@H]2O)nc2c(C(C)C)cnn12
2.4

# query: MRT last of entry C=CCNc1cc(NC[C@H]2CCNC[C@@H]2O)nc2c(C(C)C)cnn12
1.1

Quick check: MRT last of CC(C)c1cnn2c(NCc3ccccc3)cc(NC[C@H]3CCNC[C@@H]3O)nc12 [CT7001, reference compound] ?
1.3

* * *

Experiment: Pharmacokinetic study in ICR mice (oral gavage and intravenous, plasma LC-MS/MS)
Format: in vivo
Details: mouse, plasma; male ICR mice, po. 10mg/kg; read-out: AUCINF_obs
Endpoint: AUC(0-inf) (ng·h/mL)
Write the value in ng·h/mL as a bare number.

Using the record for C#CCNc1cc(NC[C@H]2CCNC[C@@H]2O)nc2c(C(C)C)cnn12 , report its AUC(0-inf).
88

Find the recorded AUC(0-inf) belonging to C=CCNc1cc(NC[C@H]2CCNC[C@@H]2O)nc2c(C(C)C)cnn12 and report it.
462

Value lookup for AUC(0-inf); key = CC(C)c1cnn2c(NCc3ccccc3)cc(NC[C@H]3CCNC[C@@H]3O)nc12 [CT7001, reference compound]
653

* * *

Test: Pharmacokinetic study in ICR mice (oral gavage and intravenous, plasma LC-MS/MS)
Format: in vivo
Conditions: mouse, plasma; male ICR mice, po. 10mg/kg
Experimental: Each group consisted of 12 animals. The dosing vehicle was 10% DMSO + 10% polyoxyethylene castor oil + 80% physiological saline solution. The oral gavage group was fasted for approximately 12 hours prior to dosing and allowed food 4 hours after administration. Water was not restricted during the experiment. […] Pharmacokinetic parameters were calculated using WinNonlin software.
What Cmax was measured for each of the following?
Answer format: numeric, ng/mL implied, no suffix.

What does the data say about its Cmax? Entry: CC(C)c1cnn2c(NCc3ccccc3)cc(NC[C@H]3CCNC[C@@H]3O)nc12 [CT7001, reference compound]
99

Which Cmax is reported for this compound? C#CCNc1cc(NC[C@H]2CCNC[C@@H]2O)nc2c(C(C)C)cnn12
26

What does the record list as Cmax for C=CCNc1cc(NC[C@H]2CCNC[C@@H]2O)nc2c(C(C)C)cnn12 ?
150

* * *

Tested on: HCC70
Experiment: Anti-proliferative activity on tumor cells (Cell Titer-Glo), HCC70
Type: cell-based
Details: HCC70, 7 days
Field: IC30. Provide a value for each of the compounds that follow.
Phrase the answer as number then unit, nothing more needed.

Query for HCC70: what IC30 does the record show for CC#CCNc1cc(NC[C@H]2CCNC[C@@H]2O)nc2c(C(C)C)cnn12 ?
968.8 nM

For the record CC(C)c1cnn2c(NCC3CC3)cc(NC[C@H]3CCNC[C@@H]3O)nc12 , what value of IC30 is listed for HCC70?
596.4 nM

Provide value of IC30 for this record tested with HCC70: CC(C)c1cnn2c(NCc3ccccc3)cc(NC[C@H]3CCNC[C@@H]3O)nc12 [CT7001, reference compound]
518.9 nM

Request body: readout IC30, system HCC70, query C#CCNc1cc(NC[C@H]2CCNC[C@@H]2O)nc2c(C(C)C)cnn12 . Return the value.
501.9 nM

* * *

Assign Vd to each entry below.
Assay: Pharmacokinetic study in ICR mice (oral gavage and intravenous, plasma LC-MS/MS)
Type: in vivo
Conditions: mouse, plasma, iv, 10 mg/kg, male ICR mice, iv. 10mg/kg; read-out: Vz
Protocol: Each group consisted of 12 animals. The dosing vehicle was 10% DMSO + 10% polyoxyethylene castor oil + 80% physiological saline solution. The oral gavage group was fasted for approximately 12 hours prior to dosing and allowed food 4 hours after administration. Water was not restricted during the experiment. […] Pharmacokinetic parameters were calculated using WinNonlin software.
Your answer should be a plain number; it is taken to be in L/kg.

Which measured Vd value corresponds to C=CCNc1cc(NC[C@H]2CCNC[C@@H]2O)nc2c(C(C)C)cnn12 [Compound 41] ?
10.9

For the molecule shown here, C#CCNc1cc(NC[C@H]2CCNC[C@@H]2O)nc2c(C(C)C)cnn12 [Compound 33] , give the reported Vd.
90
